Reference for the values: paper PMC12649225

- Test system: A. baumannii RUH875
- Format: cell-based
- CONDITION_SET: RUH875, 2 h
- Procedure: The bacterial strains used in this study included S. aureus JAR060131 [54] and the MDR ESKAPE pathogens Enterococcus faecium LUH15122, S. aureus LUH14616, Klebsiella pneumoniae LUH15104, A. baumannii RUH875 [55], Pseudomonas aeruginosa LUH15103, Enterobacter cloacae LUH15114, and the colistin-resistant Escherichia coli LUH15117. […] Bactericidal activity was assessed as described by de Breij et al.. […]
No end group written: not given here.
PROPERTY: LC99.9 A. baumannii RUH875 50% Plasma 2 h
Reply with the number, then its unit.

QUERY: Lab request: please report LC99.9 A. baumannii RUH875 50% Plasma 2 h under test system A. baumannii RUH875 for Ac-KRWVKIAKKWWRLL-NH2 [GDST-038]
RESULT: 0.94 µM

QUERY: Moving on to the next substance: Ac-KRWVKILKKVWRFL-NH2 [GDST-045]
RESULT: 1.88 µM

QUERY: Moving on to the next substance: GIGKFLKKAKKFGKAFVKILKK-NH2 (C-terminus assumed) [Pexiganan, reference compound]
RESULT: 0.23 µM

New cases:
QUERY: Lab request: please report LC99.9 A. baumannii RUH875 50% Plasma 2 h under test system A. baumannii RUH875 for LRAMCIKWWSGKHPK [TC84, reference compound]
RESULT: 3.75 µM
